Values from patent EP0097439A2

Assay: Plasma levels of 9-deoxo-16,16-dimethyl-9-methylene-PGE2 by radioimmunoassay after insertion of a suppository
Format: in vivo, Rhesus monkeys (Macaca mulatta)
Details: rhesus monkey, plasma, 30 mg, plasma; Monkey #12 (pregnant animal with uterine recording); 3 Hours; 30 mg Potassium Salt in H15 Plus 2% CSD Suppositories; read-out: Drug Levels
Where a name gives a salt, the structure may show the parent alone.
measured-property: concentration at 3 h (ng/mL)
Output spec: scalar in ng/mL, unitless text.

Return reported concentration at 3 h; argument: C=C1C[C@@H](O)[C@H](/C=C/[C@@H](O)C(C)(C)CCCC)[C@H]1C/C=C\CCCC(=O)O [Potassium Salt]
51.5

====

Experiment: Plasma levels of 9-deoxo-16,16-dimethyl-9-methylene-PGE2 by radioimmunoassay after insertion of a suppository
Format: in vivo, Rhesus monkeys (Macaca mulatta)
Details: rhesus monkey, plasma, 30 mg, plasma; Monkey #7; 4 Hours; 30 mg Free Acid in H15 Plus 2% CSD Suppositories; read-out: Drug Levels
measured-property: concentration at 4 h

Given C=C1C[C@@H](O)[C@H](/C=C/[C@@H](O)C(C)(C)CCCC)[C@H]1C/C=C\CCCC(=O)O [Free Acid, 9-deoxo-16,16-dimethyl-9-methylene-PGE2] , state its recorded concentration at 4 h.
13.2 ng/mL

====

Assay: Plasma levels of 9-deoxo-16,16-dimethyl-9-methylene-PGE2 by radioimmunoassay after insertion of a suppository
Type: in vivo, Rhesus monkeys (Macaca mulatta)
Settings: rhesus monkey, plasma, 30 mg, plasma; Monkey #16; 1 Hours; 30 mg Potassium Salt in H15 Plus 2% CSD + 10% Triacetin Suppositories; read-out: Drug Levels
Where a name gives a salt, the structure may show the parent alone.
measured-property: concentration at 1 h (µg/mL)
Output spec: scalar in µg/mL, unitless text.

Quick one: concentration at 1 h of C=C1C[C@@H](O)[C@H](/C=C/[C@@H](O)C(C)(C)CCCC)[C@H]1C/C=C\CCCC(=O)O [Potassium Salt] ?
0.0126

====

Assay: Plasma levels of 9-deoxo-16,16-dimethyl-9-methylene-PGE2 by radioimmunoassay after insertion of a suppository
Format: in vivo, Rhesus monkeys (Macaca mulatta)
Conditions: rhesus monkey, plasma, 30 mg, plasma; Monkey #8; 1.0 Hours; 30 mg Free Acid in H15 Plus 2% CSD Suppositories; read-out: Drug Levels
measured-property: concentration at 1 h (ng/mL)
Enter your answer as a number in ng/mL; do not include the unit.

Record request: concentration at 1 h value, item C=C1C[C@@H](O)[C@H](/C=C/[C@@H](O)C(C)(C)CCCC)[C@H]1C/C=C\CCCC(=O)O [Free Acid, 9-deoxo-16,16-dimethyl-9-methylene-PGE2]
88.2

====

Assay: Plasma levels of 9-deoxo-16,16-dimethyl-9-methylene-PGE2 by radioimmunoassay after insertion of a suppository
Format: in vivo, Rhesus monkeys (Macaca mulatta)
Conditions: rhesus monkey, plasma, 30 mg, plasma; Monkey #1; 1.5 Hours; 30 mg Free Acid in H15 Suppositories; read-out: Drug Levels
Description: A. Midtrimester pregnant female Rhesus monkeys (Macaca mulatta) are used. […] D. The plasma levels of 9-deoxo-16,16-d1methy1-9-methy1ene-PGE2 in monkeys treated with 6 formulations containing either 9-deoxo-16,16-dimethyl-9-methylene-PGE2 free acid or potassium salt are shown in Tables 1-6. In general, higher blood levels are measured in pregnant Rhesus monkeys than in non-pregnant monkeys.
measured-property: concentration at 1.5 h (ng/mL)
Write the answer as a number in ng/mL, unit excluded.

Fill in the blank: the reported concentration at 1.5 h of C=C1C[C@@H](O)[C@H](/C=C/[C@@H](O)C(C)(C)CCCC)[C@H]1C/C=C\CCCC(=O)O [Free Acid, 9-deoxo-16,16-dimethyl-9-methylene-PGE2] is ____.
7.89

====

Assay: Plasma levels of 9-deoxo-16,16-dimethyl-9-methylene-PGE2 by radioimmunoassay after insertion of a suppository
Assay type: in vivo, Rhesus monkeys (Macaca mulatta)
Details: rhesus monkey, plasma, 30 mg, plasma; Monkey #17; 6 Hours; 30 mg Potassium Salt in H15 Plus 2% CSD + 10% Triacetin Suppositories; read-out: Drug Levels
Protocol: A. Midtrimester pregnant female Rhesus monkeys (Macaca mulatta) are used. […] D. The plasma levels of 9-deoxo-16,16-d1methy1-9-methy1ene-PGE2 in monkeys treated with 6 formulations containing either 9-deoxo-16,16-dimethyl-9-methylene-PGE2 free acid or potassium salt are shown in Tables 1-6. In general, higher blood levels are measured in pregnant Rhesus monkeys than in non-pregnant monkeys.
Where a name gives a salt, the structure may show the parent alone.
measured-property: concentration at 6 h (ng/mL)
Report the figure in ng/mL without appending any unit label.

Given the compound C=C1C[C@@H](O)[C@H](/C=C/[C@@H](O)C(C)(C)CCCC)[C@H]1C/C=C\CCCC(=O)O [Potassium Salt] , what is its reported concentration at 6 h?
6.97

====

Experiment: Plasma levels of 9-deoxo-16,16-dimethyl-9-methylene-PGE2 by radioimmunoassay after insertion of a suppository
Format: in vivo, Rhesus monkeys (Macaca mulatta)
Conditions: rhesus monkey, plasma, 30 mg, plasma; Monkey #17; 4 Hours; 30 mg Potassium Salt in H15 Plus 2% CSD + 10% Triacetin Suppositories; read-out: Drug Levels
Structures can show the parent of a compound that is named as a salt.
measured-property: concentration at 4 h
Be sure to follow the number with its unit.

Form field: reported concentration at 4 h of C=C1C[C@@H](O)[C@H](/C=C/[C@@H](O)C(C)(C)CCCC)[C@H]1C/C=C\CCCC(=O)O [Potassium Salt]
3.13 ng/mL

====

Assay: Plasma levels of 9-deoxo-16,16-dimethyl-9-methylene-PGE2 by radioimmunoassay after insertion of a suppository
Format: in vivo, Rhesus monkeys (Macaca mulatta)
Conditions: rhesus monkey, plasma, 30 mg, plasma; Monkey #14; 4 Hours; 30 mg Free Acid in H15 Plus 2% CSD + 10% Triacetin Suppositories; read-out: Drug Levels
measured-property: concentration at 4 h (ng/mL)
Form entry: value (ng/mL) — number only.

Which concentration at 4 h is listed for C=C1C[C@@H](O)[C@H](/C=C/[C@@H](O)C(C)(C)CCCC)[C@H]1C/C=C\CCCC(=O)O [Free Acid, 9-deoxo-16,16-dimethyl-9-methylene-PGE2] ?
16.6

====

Assay: Plasma levels of 9-deoxo-16,16-dimethyl-9-methylene-PGE2 by radioimmunoassay after insertion of a suppository
Format: in vivo, Rhesus monkeys (Macaca mulatta)
Details: rhesus monkey, plasma, 30 mg, plasma; Monkey #2; 3.0 Hours; 30 mg Free Acid in H15 Suppositories; read-out: Drug Levels
measured-property: concentration at 3 h (ng/mL)
Just the number please, in ng/mL, no unit attached.

Which value of concentration at 3 h has been reported for C=C1C[C@@H](O)[C@H](/C=C/[C@@H](O)C(C)(C)CCCC)[C@H]1C/C=C\CCCC(=O)O [Free Acid, 9-deoxo-16,16-dimethyl-9-methylene-PGE2] in the records?
13

====

Experiment: Plasma levels of 9-deoxo-16,16-dimethyl-9-methylene-PGE2 by radioimmunoassay after insertion of a suppository
Format: in vivo, Rhesus monkeys (Macaca mulatta)
Conditions: rhesus monkey, plasma, 30 mg, plasma; Monkey #2; 4.0 Hours; 30 mg Free Acid in H15 Suppositories; read-out: Drug Levels
measured-property: concentration at 4 h (ng/mL)
Provide the reading as a plain figure in ng/mL.

So what's the measured concentration at 4 h for this one? C=C1C[C@@H](O)[C@H](/C=C/[C@@H](O)C(C)(C)CCCC)[C@H]1C/C=C\CCCC(=O)O [Free Acid, 9-deoxo-16,16-dimethyl-9-methylene-PGE2]
14.7

====

Test: Plasma levels of 9-deoxo-16,16-dimethyl-9-methylene-PGE2 by radioimmunoassay after insertion of a suppository
Assay type: in vivo, Rhesus monkeys (Macaca mulatta)
Conditions: rhesus monkey, plasma, 30 mg, plasma; Monkey #14; 3 Hours; 30 mg Free Acid in H15 Plus 2% CSD + 10% Triacetin Suppositories; read-out: Drug Levels
measured-property: concentration at 3 h (ng/mL)
# output: bare number, implied unit ng/mL

Entry C=C1C[C@@H](O)[C@H](/C=C/[C@@H](O)C(C)(C)CCCC)[C@H]1C/C=C\CCCC(=O)O [Free Acid, 9-deoxo-16,16-dimethyl-9-methylene-PGE2] has what concentration at 3 h?
20.2

====

Test: Plasma levels of 9-deoxo-16,16-dimethyl-9-methylene-PGE2 by radioimmunoassay after insertion of a suppository
Type: in vivo, Rhesus monkeys (Macaca mulatta)
Conditions: rhesus monkey, plasma, 30 mg, plasma; Monkey #5; 6 Hours; 30 mg Potassium Salt in H15 Suppositories; read-out: Drug Levels
Structures can show the parent of a compound that is named as a salt.
measured-property: concentration at 6 h (ng/mL)
Numeric only. Scale: ng/mL

Give its concentration at 6 h value. Item: C=C1C[C@@H](O)[C@H](/C=C/[C@@H](O)C(C)(C)CCCC)[C@H]1C/C=C\CCCC(=O)O [Potassium Salt]
25

====

Assay: Plasma levels of 9-deoxo-16,16-dimethyl-9-methylene-PGE2 by radioimmunoassay after insertion of a suppository
Type: in vivo, Rhesus monkeys (Macaca mulatta)
Settings: rhesus monkey, plasma, 30 mg, plasma; Monkey #8; 6 Hours; 30 mg Free Acid in H15 Plus 2% CSD Suppositories; read-out: Drug Levels
measured-property: concentration at 6 h (ng/mL)
Expressed in ng/mL, but write only the number.

Tell me the measured concentration at 6 h of C=C1C[C@@H](O)[C@H](/C=C/[C@@H](O)C(C)(C)CCCC)[C@H]1C/C=C\CCCC(=O)O [Free Acid, 9-deoxo-16,16-dimethyl-9-methylene-PGE2] , please.
2.49
